# credit: patent US20250352534A1

test: brain penetration in mouse brain metastatic tumor model (LC-MS, MALDI IMS); assay type: in vivo, mice; settings: BM mice; LC-MS; 2 hr post final dose
metric: Bulk Brain Homogenate Avg, total concentration (ng/g)
// return numeric value only (unit: ng/g, not printed)

NC(=O)c1cccc2cn(-c3ccc([C@@H]4CCCNC4)cc3)nc12 = 543

// next entry
Consider the compound `O=C(c1cc(Cc2n[nH]c(=O)c3ccccc23)ccc1F)N1CCN(C(=O)C2CC2)CC1` . State its measured Bulk Brain Homogenate Avg, total concentration.
11

###

test system: P-gp (Mdr1-a) and BCRP (ABCG2); experiment: in vivo; details: male, rat, brain / plasma, intravenous, Unbound brain:plasma ratio (Kp, uu), P-gp/BCRP double knock-out rat
metric: Kp uu

Consider the compound NC(=O)c1cccc2cn(-c3ccc([C@@H]4CCCNC4)cc3)nc12 [niraparib] . State its measured Kp uu.
1.5
